target: T1, human Claudin 18.1 (human, UniProt P56856 1-261); test: FACS on HEK293A/hClaudin 18.1 cells
T1 construct: Overexpressed on HEK293A cells by lentivirus
T1 sequence (P56856 whole entry): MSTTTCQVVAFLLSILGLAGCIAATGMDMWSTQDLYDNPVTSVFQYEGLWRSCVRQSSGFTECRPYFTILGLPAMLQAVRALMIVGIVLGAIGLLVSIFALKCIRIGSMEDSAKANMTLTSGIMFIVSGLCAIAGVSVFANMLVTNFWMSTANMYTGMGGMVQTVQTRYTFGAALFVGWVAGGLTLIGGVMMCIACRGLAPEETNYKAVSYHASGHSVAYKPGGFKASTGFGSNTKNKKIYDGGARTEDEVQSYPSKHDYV
recorded-metric: binding result

Quote binding result reported for 18F2-66VH4VL0 (antibody, human IgG1, kappa, V domains shown, Humanized, human IgG1/kappa constant regions) VH: QVQLVQSGAEVKKPGASVKVSCKASGYTFTSFWINWVRQRPGQGLEWIGNIYPSASYTVYNQKFKDRVTLTVDKSTSTVYMELSSLRSEDTAVYYCARTWRGNSFDLWGQGTTVTVSS VL: DIVMTQSPDSLAVSLGERATINCKSSQSLLNSGNQKNYVTWYQQKPGQPPKLLIYWSSTRSFGVPDRFSGSGSGTDFTLTISSLQAEDVAVYYCQNDYTYPFTFGQGTKLEIKR please.
no binding

Quote binding result reported for 18F2-66VH5VL0 (antibody, human IgG1, kappa, V domains shown, Humanized, human IgG1/kappa constant regions) VH: QVQLVQSGAEVKKPGASVKVSCKASGYTFTSFWINWVRQRPGQGLEWIGNIYPSASYTVYNQKFKDRVTLTVDKSTSTAYMELSSLRSEDTAVYYCTRTWRGNSFDLWGQGTTVTVSS VL: DIVMTQSPDSLAVSLGERATINCKSSQSLLNSGNQKNYVTWYQQKPGQPPKLLIYWSSTRSFGVPDRFSGSGSGTDFTLTISSLQAEDVAVYYCQNDYTYPFTFGQGTKLEIKR please.
no binding

Quote binding result reported for 18F2-30-VH3VL0 (antibody, human IgG1, kappa, V domains shown, Humanized, human IgG1/kappa constant regions) VH: QVQLVQSGAEVKKPGASVKVSCKASGYTFTSFWLNWVRQAPGQGLEWIGNIYPSTSYTVYNQKFKDRVTLTVDTSTSTVYMELSSLRSEDTAVYYCARTWRGNSFDYWGQGTTVTVSS VL: DIVMTQSPDSLAVSLGERATINCKSSQSLLNSGNQKNYVTWYQQKPGQPPKLLIYWGSTRSTGVPDRFSGSGSGTDFTLTISSLQAEDVAVYYCQNDYTYPFTFGQGTKLEIKR please.
no binding
